Tested on: SKOV3
Assay: Primary qHTS to identify gynecologic anti-cancer compounds using libraries of approved drugs and bioactive compounds (AID 1345084); note: potency is the fitted concentration of half-maximal effect; nearly all actives have a fitted effect of over 55% in size
Settings: Gynecologic cancer cell panel viability, ATPlite luminescence, 48 h; series mostly up to 57.5 µM
Inconclusive results are not listed. Active and inactive are the calls of the source. Calls come from the whole dose curve; as a rule, active = well fitted cell-killing curve with a large enough effect; inconclusive = small, poorly fitted or top-dose-only effect, or effect the other way; inactive = flat fitted curve, though single readings scatter.
Form field: Potency (one value per entry).

| COMPOUND | Potency |
| --- | --- |
| CC(=O)c1cnc2ccc(-c3cc(Cl)c(O)c(Cl)c3)nc2c1NC1CCC(CN(C)C)CC1 (centres undefined) | 0.891 µM (active) |
| NS(=O)(=O)OC[C@@H]1C[C@@H](n2ccc3c(N[C@H]4CCc5ccccc54)ncnc32)C[C@@H]1O | 10 µM (active) |
| COc1ccc(C[C@H](N)C(=O)N[C@H]2[C@@H](O)[C@H](n3cnc4c(N(C)C)ncnc43)O[C@@H]2CO)cc1 | 3.55 µM (active) |

Consider now this further compound.
Asked: Fill in the blank: the reported Potency of COc1cc2c(Nc3ccc(Cl)c(Cl)c3F)ncnc2cc1OCC1C[C@@H]2CN(C)C[C@@H]2C1 (some centres undefined) is ____.
Given back: 14.1 µM (active)

----------
Assay: Identifying Small Molecule Inhibitors of Pancreatic Cancer Stem Cells (A278, Adherent) (AID 1259361);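 note: viability read after 48 h compound exposure; nearly all actives have a fitted effect of over 35% in size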
Conditions: series mostly up to 46.1 µM
Records with an inconclusive call do not appear. Active and inactive are the calls of the source. The call rests on the fitted dose curve; in most records, active means well fitted cell-killing curve with a large enough effect; inconclusive means small, poorly fitted or top-dose-only effect; inactive means flat fitted curve, though single readings scatter.
In this exercise, the only acceptable responses are active, inactive

Look over these answered cases.
| COMPOUND | ASSIGNED_LABEL |
| --- | --- |
| CC[C@@H](C(=O)O)C1CC[C@H](C)C([C@@H](C)[C@H](O)[C@H](C)C(=O)[C@H](CC)C2O[C@]3(C=C[C@@H](O)[C@]4(CC[C@@](C)(C5CC[C@](O)(CC)[C@H](C)O5)O4)O3)[C@H](C)C[C@@H]2C)O1 (stereo partly drawn) | active |
| CCC1(O)CC2CN(CCc3c([nH]c4ccccc34)[C@@](C(=O)OC)(c3cc4c(cc3OC)N(C=O)[C@H]3[C@](O)(C(=O)OC)[C@H](OC(C)=O)[C@]5(CC)C=CCN6CC[C@]43[C@@H]65)C2)C1 (stereo partly drawn) | active |
| CCC1(Cc2ccc(N)cc2)CCC(=O)NC1=O (stereo not drawn) | inactive |
| CCCCCCCCCCCCCCCCCCOP(=O)([O-])OC1CC[N+](C)(C)CC1 | active |
| NC(=O)Nc1cc(-c2ccc(CN3CCOCC3)c(F)c2)sc1C(=O)N[C@H]1CCCNC1 | active |

Asked: // param item: "O=C(O)CC/C=C\CC[C@H]1[C@@H](N2CCCCC2)[C@@H](O)C[C@@H]1OCc1ccc(-c2ccccc2)cc1" ; yields the recorded call
Given back: inactive

Asked: Also "COC(=O)C1=C(C)NC(C)=C(C(=O)OCCCN2CCC(c3ccccc3)(c3ccccc3)CC2)[C@H]1c1cccc([N+](=O)[O-])c1" ?
Given back: active

Asked: Also "CCOc1cc2ncc(C#N)c(Nc3ccc(OCc4ccccn4)c(Cl)c3)c2cc1NC(=O)/C=C/CN(C)C" ?
Given back: active

----------
Experiment: Primary qHTS for inhibitors of nuclear receptor binding SET domain protein 2 (NSD2) in an RCH-ACV wild type WT cells (2C) (AID 1645877); note: nearly all actives have a fitted effect of over 70% in size; for activity change, negative = cell killing: % is set by controls: 0 for no effect and ±100 for the full control effect
Settings: RCH-ACV (leukaemia line) NSD2 WT (2C) viability, CellTiter-Glo, 72 h; series mostly up to 44.9 µM
Records with an inconclusive call do not appear. Activity calls are given as the source filed them. Calls come from the whole dose curve; as a rule, active = well fitted inhibition curve with a large enough effect; inconclusive = small, poorly fitted or top-dose-only effect; inactive = no such curve, though single readings can be large or run the other way.
PARAMETER: activity change, negative = cell killing

Before answering, review these 10 worked examples.
| MOLECULE | activity change, negative = cell killing |
| --- | --- |
| COC(=O)C1=CO[C@@H](O[C@@H]2O[C@H](CO[C@@H]3O[C@H](COC(=O)/C=C/c4ccc(O)cc4)[C@@H](O)[C@H](O)[C@H]3O)[C@@H](O)[C@H](O)[C@H]2O)[C@@H]2C(CO)=CC[C@H]12 | inactive |
| CCC(=O)N[C@@H]1Cc2ccccc2[C@H](c2ccccc2)C1 | inactive |
| C=C1CC23CCC4[C@@](C)(CCC[C@@]4(C)C(=O)O)C2CCC1C3 (stereo partly specified) | inactive |
| Cc1nnc(C(C)C)n1C1CC2CCC(C1)N2CC[C@H](NC(=O)C1CCC(F)(F)CC1)c1ccccc1 (stereo partly specified) | inactive |
| Cc1cc(O)c(C(C)C)cc1O[C@@H]1O[C@H](CO)[C@@H](O)[C@H](O)[C@H]1O | inactive |
| C[C@@H]1C[C@H](O[C@@H]2O[C@H](CO[C@@H]3OC[C@](O)(CO)[C@H]3O)[C@@H](O)[C@H](O)[C@H]2O)CC(C)(C)[C@H]1/C=C/[C@@H](C)O | inactive |
| C=C1CC[C@H]2[C@@](C)(CCC[C@@]2(C)C(=O)O)[C@@H]1CCC(C)CCO (stereo partly specified) | inactive |
| C=C1C[C@]23C[C@H]1CC[C@H]2[C@@]12C=C[C@H](O)[C@@](C)(C(=O)O1)[C@H]2[C@@H]3C(=O)O | inactive |
| CCC(CCO[C@@H]1O[C@H](CO[C@H]2OC[C@](O)(CO)[C@H]2O)[C@@H](O)[C@H](O)[C@H]1O)C(C)(C)O (stereo partly specified) | inactive |
| CC(=O)O[C@@H]1[C@H](O[C@@H]2OC[C@](O)(CO)[C@H]2O)[C@@H](O[C@@H]2O[C@@H](C)[C@H](O)[C@@H](O)[C@H]2O)[C@H](OC(=O)[C@]23CCC(C)(C)C[C@H]2C2=CCC4[C@@]5(C)C[C@H](O)[C@H](O[C@@H]6O[C@H](C(=O)O)[C@@H](O)[C@H](O)[C@H]6O)[C@@](C)(C(=O)O)C5CC[C@@]4(C)[C@]2(C)CC3)O[C@@H]1C (stereo partly specified) | -8.29% [at 9.23 µM] (inactive) |

Asked: Fill in the blank: the reported activity change, negative = cell killing of CCOC(=O)[C@H](CCc1ccccc1)N[C@@H](C)C(=O)N1C2CCCCC2C[C@H]1C(=O)O (stereo partly specified) is ____.
Given back: inactive

Asked: Also C/C=C(\C)C(=O)O[C@@H]1CC2[C@@H](CC=C3C[C@@H](O[C@H]4C[C@H](OC)[C@H](O[C@H]5C[C@H](OC)[C@H](O[C@H]6C[C@H](OC)[C@H](O[C@H]7C[C@@H](OC)[C@H](O[C@@H]8O[C@H](CO)[C@@H](O)[C@H](O)[C@H]8O)[C@@H](C)O7)[C@@H](C)O6)[C@@H](C)O5)[C@@H](C)O4)CC[C@@]32C)[C@@]2(O)CC[C@H](C(C)=O)[C@@]12C (stereo partly specified) ?
Given back: -18.8% [at 9.23 µM] (inactive)

----------
Test: Cell Viability - LYMP1-003 - Assay at 40 hr (AID 964); note: nearly all actives have a fitted effect of over 60% in size
Settings: LYMP1-003 lymphoblastoid viability; series mostly up to 92.2 µM
Inconclusive results are not listed. Calls of active or inactive are those of the source. Calls come from the whole dose curve; as a rule, active = well fitted cell-killing curve with a large enough effect; inconclusive = small, poorly fitted or top-dose-only effect; inactive = flat fitted curve, though single readings scatter.
In this exercise, the only acceptable responses are active, inactive

Asked: // param item: "O=CCCCC=O" ; yields the recorded call
Given back: inactive

Asked: Also "Cc1ccccc1" ?
Given back: inactive

Asked: Also "CCCCC/C=C\C/C=C\CCCCCCCC(=O)O" ?
Given back: inactive

Asked: Also CC(O)CO (stereo not drawn) ?
Given back: inactive

Asked: Also "CCCCCCCC(=O)O" ?
Given back: inactive

Asked: Also "CC(C)(C)NC(=O)[C@@H]1C[C@@H]2CCCC[C@@H]2CN1C[C@@H](O)[C@H](Cc1ccccc1)NC(=O)[C@H](CC(N)=O)NC(=O)c1ccc2ccccc2n1" ?
Given back: active

Asked: Also "CC1=C2[C@@H]([C@H](C)CC[C@H]2/C=C(\C)C(=O)O)[C@H](O)C1" ?
Given back: inactive

----------
Tested on: KB-3-1
Experiment: Cytotoxic Profiling of Annotated Libraries Using Quantitative High-Throughput Screening (AID 1296008); note: nearly all actives have a fitted effect of over 60% in size
Details: Five cell lines viability, CellTiter-Glo ATP luminescence, 48-72 h
Results filed as inconclusive are left out. The source made the active and inactive calls. The call rests on the fitted dose curve; in most records, active means well fitted inhibition curve with a large enough effect; inconclusive means small, poorly fitted or top-dose-only effect; inactive means flat fitted curve, though single readings scatter.
In this exercise, the only acceptable responses are yes (1) = active, no (0) = inactive

Look over these answered cases.
| COMPOUND | ASSIGNED_LABEL |
| --- | --- |
| CCCC(N[C@@H](C)C(=O)N1[C@H](C(=O)O)C[C@@H]2CCCC[C@@H]21)C(=O)OCC (stereo partly drawn) | no (0) |
| COc1ccc2c(c1)OC[C@]1(O)c3cc4c(cc3O[C@H]21)OCO4 | no (0) |
| COc1cc(N2CCC(N(C)C)CC2)ccc1Nc1ncc(Cl)c(Nc2ccccc2P(C)(C)=O)n1 | yes (1) |
| OC[C@H]1O[C@@H](OC(CCCCc2ccc(O)cc2)CCc2ccc(O)cc2)[C@H](O[C@@H]2OC[C@](O)(CO)[C@H]2O)[C@@H](O)[C@@H]1O (stereo partly drawn) | no (0) |
| O=C(OCc1cccc(O)c1O[C@@H]1O[C@H](CO)[C@@H](O)[C@H](O)[C@H]1O)C1(O)C(=O)C2C=CC1C1C=CC(=O)C(O)(C(=O)OCc3cccc(O)c3O[C@@H]3O[C@H](CO)[C@@H](O)[C@H](O)[C@H]3O)C21 (stereo partly drawn) | no (0) |
| CCc1c(CC(N)=O)c2cc(OCCCP(=O)(O)O)ccc2n1Cc1ccccc1 | no (0) |
| CC(=O)O[C@@H]1[C@H](O[C@@H]2O[C@H](CO)[C@@H](O)[C@H](O)[C@H]2O)[C@@H](O[C@@H]2O[C@@H](C)[C@H](O)[C@@H](O[C@@H]3O[C@H](CO)[C@@H](O)[C@H](O)[C@H]3O)[C@H]2O)[C@H](OC(=O)C23CCC4(C)C(=CCC5C6(C)CC(O)C(O[C@@H]7O[C@H](C(=O)O)[C@@H](O)[C@H](O)[C@H]7O)C(C)(C(=O)O)C6CCC54C)C2CC(C)(C)CC3O)O[C@@H]1C (stereo partly drawn) | no (0) |
| C[C@@H]1O[C@@H](O[C@@H]2[C@@H](O)[C@H](O[C@@H]3[C@@H](O)[C@@H](O)[C@H](O[C@H]4[C@H](OC(=O)[C@]56CCC(C)(C)C[C@H]5C5=CCC7[C@@]8(C)C[C@H](O)[C@H](O[C@@H]9O[C@@H](C)[C@H](O)[C@@H](O)[C@H]9O)[C@@](C)(CO)C8CC[C@@]7(C)[C@]5(C)C[C@H]6O)O[C@H](C)[C@H](O)[C@@H]4O)O[C@H]3C)OC[C@H]2O)[C@H](O)[C@H](O)[C@H]1O (stereo partly drawn) | no (0) |
| C=C[C@H]1[C@H](O[C@@H]2O[C@H](CO[C@@H]3OC[C@](O)(CO)[C@H]3O)[C@@H](O)[C@H](O)[C@H]2O)OC=C2C(=O)OCC[C@H]21 | no (0) |
| CC(=O)OC[C@@]12[C@@H](OC(C)=O)C[C@@H](C)[C@](C)([C@@H]3C[C@H]4C=CO[C@H]4O3)[C@H]1CCC[C@]21CO1 | no (0) |

Next item in the queue.
Asked: // param item: "Nc1ccn([C@@H]2C(F)=C(CO)[C@@H](O)[C@H]2O)c(=O)n1" ; yields the recorded call
Given back: yes (1)
